Where do the numbers come from? From the RNAGym collection of RNA variant scans (doi:10.7554/elife.90254).

# self-cleavage annotations
B1: LINE1-full (parent)
chain: UACGUAGGUGGUUUUCCCCUGAUAGUGCUAAGGGGGCCUGGAAGUUUGGACUGGGCAGAGCUCAACACAGCGUGGCAAAGUGGCUGUGGCUAGACUGCCUCUCUGGAUUCCUCGUCACUCAGCAGGGCAUCUCUGAGAGAAAUGCC

Variants of: B1
Experiment: self-cleavage, relative activity (ratio to wild type); higher = more cleavage; in vitro, sequencing; the parent is a self-cleaving ribozyme

>  <ITEM_SEQUENCE>
UACGUAGGUGGUUUUCCCCUGAUAGUGCUAAGGGUGCCUGGAAGUUUGGACUGGGCAGAGCUCAACACAGCGUGGCAAAGUGGCUGUGGCCAGACUGCCUCUCUGGAUUCCUCGUCACUCAGCAGGGCAUCUCUGAGAGAAAUGCC [G35U U91C]

>  <self-cleavage>
0.52

$$$$
>  <ITEM_SEQUENCE>
UACGUAGGUGGUUUUCCCCAGAUAGUGCUAAGGGGGCCUGGAAGUUCGGACUGGGCAGAGCUCAACACAGCGUGGCAAAGUGGCUGUGGCUAGACUGCCUCUCUGGAUUCCUCGUCACUCAGCAGGGCAUCUCUGAGAGAAAUGCC [U20A U47C]

>  <self-cleavage>
1.31

$$$$
>  <ITEM_SEQUENCE>
UACGUAGGUGGUUUUCCCCUGAUAGUGCUAAGGGGGCCUGGAAGUUUGGACUGGGCAGAGCUCGACACAGCGUGGCAAAGUGGCUGUGGCUAGACUGCCUCUCUGGAUUCCUCGUCACUCAGCAGGGCAUCUCUGAGAGAAAUGCC [A64G]

>  <self-cleavage>
0.25

$$$$
>  <ITEM_SEQUENCE>
UACGUAGGUGGUUUUCCCCUGAUAGUGCUAAGGGGGCCUGGAAGUUUGGACAGGGCAGAGCUCAACACAGCGUGGCAAAGUGGCUGUGGCUAGACCGCCUCUCUGGAUUCCUCGUCACUCAGCAGGGCAUCUCUGAGAGAAAUGCC [U52A U96C]

>  <self-cleavage>
0.15

$$$$
>  <ITEM_SEQUENCE>
UACGUAGGUGGUCUUCCCCUGAUAGUGCUAAGGGGGCCUGGAAGUUUGGACUGGGCAGAGCUCAACACAGCGUGGCAAAGUGGCUGUGGCUAGACUGCCUCUCUAGAUUCCUCGUCACUCAGCAGGGCAUCUCUGAGAGAAAUGCC [U13C G105A]

>  <self-cleavage>
1.33

$$$$
>  <ITEM_SEQUENCE>
UACGUAGGUGGUUUUCCCCUGAUAGUGCUAAGGGGGCCUGGAAGUUUGGACUGGGCAGAGCUCAACACAGUGUGGCAAAGUGGCUGUGGCUAGACUGCCCCUCUGGAUUCCUCGUCACUCAGCAGGGCAUCUCUGAGAGAAAUGCC [C71U U100C]

>  <self-cleavage>
1.31

$$$$
>  <ITEM_SEQUENCE>
UACAUAGGUGGUUUUCACCUGAUAGUGCUAAGGGGGCCUGGAAGUUUGGACUGGGCAGAGCUCAACACAGCGUGGCAAAGUGGCUGUGGCUAGACUGCCUCUCUGGAUUCCUCGUCACUCAGCAGGGCAUCUCUGAGAGAAAUGCC [G4A C17A]

>  <self-cleavage>
0.92

$$$$
>  <ITEM_SEQUENCE>
UACGUAGGUGGUUUUCCCCUGAUAGUGCUAAGGGGGCCUGGAAGUUUGGACUGGGCAGAGCUCAACACAGCGUGGCAAAGUGGCUGUGGCUAGACUGCCUCCCUGGAUUCCUCGUCACUCAGCAGGGCAUUUCUGAGAGAAAUGCC [U102C C131U]

>  <self-cleavage>
0.87

$$$$
>  <ITEM_SEQUENCE>
UACGUAGGUGGUUUUCCCCUGAUAGUGCUAAGGGGGCCUGGAAGUUUGGACUGGGCAGAGCUCAACACAGCGUGGCAAAGUGGCUGAGGCUAGACUGCCUCUCUGGAUUCCUCGUCACUCAACAGGGCAUCUCUGAGAGAAAUGCC [U87A G122A]

>  <self-cleavage>
0.09

$$$$
>  <ITEM_SEQUENCE>
UACGUAGGUGGUUUUCCCCUGAUAGUGCUAAGGGGGCCUGGAAGUUUGGACUGGGCAGAGCUCCACACAGCGUGGCAAAGUGGCUGUGGCUAGACUGCCUCUCUGGAUUCCUCGUCACUCAGCAGGGCGUCUCUGAGAGAAAUGCC [A64C A129G]

>  <self-cleavage>
0.51

$$$$
>  <ITEM_SEQUENCE>
UACGUAGGUGGCUUUCCCCUGAUAGUGCUAAGGGGGCCUGAAAGUUUGGACUGGGCAGAGCUCAACACAGCGUGGCAAAGUGGCUGUGGCUAGACUGCCUCUCUGGAUUCCUCGUCACUCAGCAGGGCAUCUCUGAGAGAAAUGCC [U12C G41A]

>  <self-cleavage>
1.26

$$$$
>  <ITEM_SEQUENCE>
UUCGUAGGUGGUUUUCCCCUGAUAGUGCUAAGGGGGCCUGGAAGUUUGGACUGGGCAGAGCUCAACACAGCGUGGCAAAGUGGCUGUGGCUAGACUGCCUCUCUGGAUUCCUCGUCACUCAGCAGGGCACCUCUGAGAGAAAUGCC [A2U U130C]

>  <self-cleavage>
0.32

$$$$
>  <ITEM_SEQUENCE>
UACGUAGGUGGUUUUCCCCUGAUAGUGCUAAGGGGGCCUGGAAGUUUGGACUGGGCAGAGCUCAACACAGCGUGGCAAAGUGGCUGUGGCUAGACUGCAUCUCUGGACUCCUCGUCACUCAGCAGGGCAUCUCUGAGAGAAAUGCC [C99A U108C]

>  <self-cleavage>
1.2

$$$$
>  <ITEM_SEQUENCE>
UACGUAGGGGGUUUUCCCCUGAUAGUGCUAAGGGGGCCUGGAAGUUUGGACUGGGCAGAGCUCAACACAGCGUGGCAAAGUGGCUGUGGCUAGACUGCCUCUCUGGAUUCCUCGUCACUCAGCAGGGCAUCUCCGAGAGAAAUGCC [U9G U134C]

>  <self-cleavage>
0.71

$$$$
>  <ITEM_SEQUENCE>
UACGUAGGUGGUUUUCCCCUGAUAGUGCUAAGGGGGCCUGGAAGUUUGGACUGGGCAGAGCUCAACUCAGCGUGGCUAAGUGGCUGUGGCUAGACUGCCUCUCUGGAUUCCUCGUCACUCAGCAGGGCAUCUCUGAGAGAAAUGCC [A67U A77U]

>  <self-cleavage>
0.04

$$$$
>  <ITEM_SEQUENCE>
UACGUAGGUGGUUUUCCCCUGAUAGUACUAAGGGGGCCUGGUAGUUUGGACUGGGCAGAGCUCAACACAGCGUGGCAAAGUGGCUGUGGCUAGACUGCCUCUCUGGAUUCCUCGUCACUCAGCAGGGCAUCUCUGAGAGAAAUGCC [G27A A42U]

>  <self-cleavage>
0.99

$$$$
>  <ITEM_SEQUENCE>
UACGUAGGUGGUUUUCCCCUGAUAGUGCUAAGGGGGCCUGGAAGUUUGGACUGGGCUGAGCUCAACACAGCGUGGCAAAGUGGCUGUGGCUAGACUGCCUCUCUGGAUUCCUCGCCACUCAGCAGGGCAUCUCUGAGAGAAAUGCC [A57U U115C]

>  <self-cleavage>
0.18

$$$$
>  <ITEM_SEQUENCE>
UACGCAGGUGGUUUUCCCCUGAUAGUGCUAAGGGGGCCUGGAAGUUUGGACUGGGCAGAGCUCAACACAGCGUGGCAAAGUGGCUGUGGCUAGACUGCCUCUCUGGAUUCCUCGUCACUCAGCAGGGCAUCUCUGAGUGAAAUGCC [U5C A138U]

>  <self-cleavage>
1.58

$$$$
>  <ITEM_SEQUENCE>
UACGUAGGUGGUUUUCCCCUGAUAGUGCUAAGGGGGCCUGGAAGUUUGGACUGGGCAGAGCUCAACACAGCGUGGCUAAGUGGCUGUGGCUAGACUGCCUCUCUGGCUUCCUCGUCACUCAGCAGGGCAUCUCUGAGAGAAAUGCC [A77U A107C]

>  <self-cleavage>
1.21

$$$$
>  <ITEM_SEQUENCE>
UACGUAGGUGGUUUUCCCCUGAUAGUGCUAAGGGGGCCUGGAAGUUUGGACUGGGCAGAGCUCAACACGGCGUGGCAAAGUGGCUGUGGCUAGACUGCCUCUCUGGAUUCCUCGUCACUCAGCAGGGCAUCUCUGAGAGUAAUGCC [A69G A140U]

>  <self-cleavage>
0.47

$$$$
>  <ITEM_SEQUENCE>
UACGUAGGUGGUUUUCCCCUGAUAGUGCUAAGGGGGCCUGGAAGUUUGGACUGGGCAGAGCUCAACACAGCGUGGCAAAGUGGCCGUGGCUAGACUGCCUCUCUGGAUUCCUCGUCACUCAGCAGGGCUUCUCUGAGAGAAAUGCC [U85C A129U]

>  <self-cleavage>
0.19

$$$$
>  <ITEM_SEQUENCE>
UACGUAGGUGGUUAUCCCCUGAUAGUGCUAUGGGGGCCUGGAAGUUUGGACUGGGCAGAGCUCAACACAGCGUGGCAAAGUGGCUGUGGCUAGACUGCCUCUCUGGAUUCCUCGUCACUCAGCAGGGCAUCUCUGAGAGAAAUGCC [U14A A31U]

>  <self-cleavage>
0.84

$$$$
>  <ITEM_SEQUENCE>
UACGUAGGUGGUCUUCCCCUGAUAGUGCUAAGGGGGCCUGGAAGUUUGGACUGGGCGGAGCUCAACACAGCGUGGCAAAGUGGCUGUGGCUAGACUGCCUCUCUGGAUUCCUCGUCACUCAGCAGGGCAUCUCUGAGAGAAAUGCC [U13C A57G]

>  <self-cleavage>
0.76

$$$$
>  <ITEM_SEQUENCE>
UACGUAGGAGGUUUUCCCCUGAUAGUGCUAAGGGGGCCUGGAAGUUUGGACUGGGCAGAGCUCAACACAGCGUGGCAAAGCGGCUGUGGCUAGACUGCCUCUCUGGAUUCCUCGUCACUCAGCAGGGCAUCUCUGAGAGAAAUGCC [U9A U81C]

>  <self-cleavage>
1.1

$$$$
>  <ITEM_SEQUENCE>
UACGUAGGUGGUUUUCCCCUGACAGUGCUAAGGGGGCCUGGAAGUUUGGACUGGGCAGAGCUCAACACAGCGUGGCAAAGUGGCUGUGGCUAGACUGCCUCUCUGGAUUCCUCGUCACUCAGCAGAGCAUCUCUGAGAGAAAUGCC [U23C G126A]

>  <self-cleavage>
1.18

$$$$
>  <ITEM_SEQUENCE>
UACGUAGGUGGUUUUCCCCUGAUAGUGCCAAGGGGGCCUGGAAGUUCGGACUGGGCAGAGCUCAACACAGCGUGGCAAAGUGGCUGUGGCUAGACUGCCUCUCUGGAUUCCUCGUCACUCAGCAGGGCAUCUCUGAGAGAAAUGCC [U29C U47C]

>  <self-cleavage>
1.85

$$$$
>  <ITEM_SEQUENCE>
UACGUAGGUGGUUUUCCCCUGAUAGUGCUAAGGGGGGCUGGAAGUUUGGACUGGGCAGAGCUCAACACAGCGUGGCUAAGUGGCUGUGGCUAGACUGCCUCUCUGGAUUCCUCGUCACUCAGCAGGGCAUCUCUGAGAGAAAUGCC [C37G A77U]

>  <self-cleavage>
1.06

$$$$
>  <ITEM_SEQUENCE>
UACGUAGGUGGUUUUCCCCCGAUAGUGCUAAGGGGGCCUGGAAGUUUGGACUGGGCAGAGCUCAACACAGCGUGGCAAAGUGGCUGUGGCUAGACUGCCUCUCUGGAUUCCUCGUCACUCAGCAGGGCAUCUCUGAGAGAGAUGCC [U20C A141G]

>  <self-cleavage>
1.54

$$$$
>  <ITEM_SEQUENCE>
UACGUAGGUGGUUUUCCCCUGAUAGUGCUAAGGGGGCCUGGAAGUUGGGACUGGGCAGAGCUCAACACAGCGUGGCAAAGCGGCUGUGGCUAGACUGCCUCUCUGGAUUCCUCGUCACUCAGCAGGGCAUCUCUGAGAGAAAUGCC [U47G U81C]

>  <self-cleavage>
0

$$$$
>  <ITEM_SEQUENCE>
UACGUAGGUGGUUUUCCCCUGAUUGUGCUAAGGGGGCCUGGAAGUUUGGACUGGGCAGAGCUCAACACAGCGUGGCGAAGUGGCUGUGGCUAGACUGCCUCUCUGGAUUCCUCGUCACUCAGCAGGGCAUCUCUGAGAGAAAUGCC [A24U A77G]

>  <self-cleavage>
2.22

$$$$
>  <ITEM_SEQUENCE>
UACGUAGGUGGUUUUCCCCUGAUAGUGCUAAGGGGGCCUGGAAGUUUGGACUGGGCAGAGCUCAACACAGCGUGGUAAAGUGGCUGUGGCUAGACUGCCUCUCCGGAUUCCUCGUCACUCAGCAGGGCAUCUCUGAGAGAAAUGCC [C76U U104C]

>  <self-cleavage>
2.05

$$$$
>  <ITEM_SEQUENCE>
UACGUAGGUGGUUUUCCCCUGAUAGCGCUAAGGGGGCCUGGAAGUUUGGACUGGGCAGAGCUCAACACAGCGUGGCAAAGUGGCUGUGGCUAGUCUGCCUCUCUGGAUUCCUCGUCACUCAGCAGGGCAUCUCUGAGAGAAAUGCC [U26C A94U]

>  <self-cleavage>
0.28

$$$$
>  <ITEM_SEQUENCE>
UACGUAGGUGGUUUUCCCCUGAUAGUGCUAAGGGGGCCUGGAAGUUUGGACUGGGCAGAGCUCAACACAGCGUGGCAAAGUGGCUGUGGCUAGACUUCCUCUCUGGAUUCCUCGUCACUCAGCAGGACAUCUCUGAGAGAAAUGCC [G97U G127A]

>  <self-cleavage>
0.04

$$$$
>  <ITEM_SEQUENCE>
UACGUAGGUGGUUUUCCCCUGAUAGUGCUAAGGGGGCAUGGAAGUUUGGACUGGGCAGAGCUCAACACAGCGUGGCAAAGUGGCUGUGGCUAGACUGCCUCUCUGGAUUCCUCGUCACUCAGCAGGGCAUCUCUGAGAGAAAUGCC [C38A]

>  <self-cleavage>
1.28

$$$$
>  <ITEM_SEQUENCE>
UACGUAGGUGGUUUUCCCCUGAUAGUGCUAAGGGGGCCUGGAAGUUUGGACUGGGCAGAGCUCAACACAGCGUGGCAAAGUGGCUGUGGCUAGACUGCCCCUUUGGAUUCCUCGUCACUCAGCAGGGCAUCUCUGAGAGAAAUGCC [U100C C103U]

>  <self-cleavage>
1.65

$$$$
>  <ITEM_SEQUENCE>
UACGUAGGUGGUUUUCCCCUGAUAGUGCUAAGGGGGCCUGGAAGUUUGGACUGGGCGGAGCUCAACACAGCGUGGCAAAGUGGCUGUGGCUAGACUGCCUCUCUGGAUUCCUCGUCACUCAGCAGGGCAUCUCAGAGAGAAAUGCC [A57G U134A]

>  <self-cleavage>
0.62

$$$$
